# experimental_target: BRD4-2 (Homo sapiens)
// values below are reported IC50
State the value with its unit after it.

>  <compound>
Cc1noc(C)c1-c1cc(-c2cccnc2-c2ccccc2)c2oc(=O)[nH]c2c1

>  <experimental_target>
BRD4-2 (Homo sapiens)

>  <IC50>
314 nM

$$$$
>  <compound>
Cc1ccc2ncccc2c1-c1cc(-c2c(C)noc2C)cc2[nH]c(=O)n(C)c12

>  <experimental_target>
BRD4-2 (Homo sapiens)

>  <IC50>
101 nM

$$$$

What IC50 value was documented for this compound, Cc1noc(C)c1-c1cc(-c2c(C)noc2C)c2c(c1)[nH]c(=O)n2C ?
227 nM

Then Cc1cnn(C)c1-c1cc(-c2c(C)noc2C)cc2[nH]c(=O)[nH]c12 ?
144 nM
